test system: CEM cells HIV-1 protection, formazan growth assay; assay: NCI AIDS Antiviral Assay;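 active = compounds giving half or more protection of infected cells from virus-caused growth loss, again on retest; inactive = the rest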
Answer with one of the outcomes Y (active), N (inactive)

Request: // return assay outcome for O=C1[C@H](O)[C@@H]2C(O)O[C@H]3[C@@H]2N1C[C@H]3[Si](c1ccccc1)(c1ccccc1)c1ccccc1 (some centres undefined)
Response: N

Request: // return assay outcome for COc1nc(=O)n(C2CC(F)C(CO)O2)cc1C (centres undefined)
Response: Y

Request: // return assay outcome for "CCOC(=O)CSc1[nH]c2nc(C)nc(Cl)c2c1C#N"
Response: N

Request: // return assay outcome for Cc1cc(C)c(NS(=O)c2cccc(C(F)(F)F)c2)c(C)c1 (centres undefined)
Response: N

Request: // return assay outcome for "O=C1c2cc([N+](=O)[O-])cnc2S(=O)(=O)N1c1ccc(Br)cc1"
Response: N

Request: // return assay outcome for "O=C(O)CCCCC[n+]1ccccc1"
Response: N

Request: // return assay outcome for "Cc1nc(C)c(N2CCN([N+](=O)[O-])CC2)c(=O)[nH]1"
Response: N

Request: // return assay outcome for "C=C1CN(S(=O)(=O)c2ccc(C)cc2)CCCN(Cc2cccn2C)CCCN(S(=O)(=O)c2ccc(C)cc2)C1"
Response: N

Request: // return assay outcome for "COC(=N)CCCl"
Response: N

Request: // return assay outcome for "CC(C)(Br)C(=O)C(Br)Br"
Response: N

Request: // return assay outcome for Cc1ccccc1NC(=O)C(=O)C(C#N)c1ccccc1C (centres undefined)
Response: N

Request: // return assay outcome for O=c1n(-c2ccccc2)c(=O)n2n1C1C3C4C3C2C2(F)C4C12 (centres undefined)
Response: N

Request: // return assay outcome for CCOP(=O)(OCC)C1CC(O)C(=O)N1 (centres undefined)
Response: N

Request: // return assay outcome for "CC1(C)S(=O)(=O)OCCOS1(=O)=O"
Response: N

Request: // return assay outcome for COC(=O)N/N=C(\c1nc2ccc(Cl)cc2[nH]c1=O)C(O)c1ccc([N+](=O)[O-])cc1 (centres undefined)
Response: N

Request: // return assay outcome for "CCOC(=O)/C(=C\c1ccc(F)cc1)P(=O)(OCC)OCC"
Response: N

Request: // return assay outcome for "Cc1nn(-c2ccccc2)c2nc3ccc(Cl)cc3c(-c3ccccc3)c12"
Response: N

Request: // return assay outcome for "CCN(CC)/[N+]([O-])=N/OCOC"
Response: N

Request: // return assay outcome for CC(=O)NC1C(OCc2ccccc2)OC(CO)C(O)C1OCC(=O)N1CCCC1C(=O)N[C@@H](CCC(=O)NCCCCNc1c2ccccc2nc2cccc([N+](=O)[O-])c12)C(N)=O (some centres undefined)
Response: N

Request: // return assay outcome for CCOC(=O)C1(O)Nc2ncncc2N(C)C1=O (centres undefined)
Response: N

Request: // return assay outcome for "CCOC(=O)c1c(C)cc(C)nc1[S][Sn]([Br])([Br])[S]c1nc(C)cc(C)c1C(=O)OCC"
Response: N

Request: // return assay outcome for "O=C1C=C(Nc2cccnc2)c2ccccc2C1=O"
Response: N

Request: // return assay outcome for "Nc1nc(N)c(C2=CCNCC2)c(=O)[nH]1"
Response: N

Request: // return assay outcome for O=S(=O)(O)C(O)C(O)S(=O)(=O)O (centres undefined)
Response: N

Request: // return assay outcome for CC(CC12CCC3(OO1)C(C)(C)CCCC3(C)O2)OC(=O)c1ccccc1 (centres undefined)
Response: N

Request: // return assay outcome for "O=C1Oc2ccccc2C(=O)/C1=C/N1C(=O)/C(=C/c2ccc([N+](=O)[O-])cc2)SC1=S"
Response: N

Request: // return assay outcome for "CC(=O)Nc1ccc(-c2nnc(SCC(=O)Nc3cccc(Cl)c3)o2)cc1"
Response: N

Request: // return assay outcome for O=C1OCC(O)C(C2OC(=O)c3cc(O)c(O)c(O)c3-c3c(O)c(O)c(O)c4c3C(=O)OC2C4c2c(O)cc(O)c3c2OC(c2ccc(O)c(O)c2)C(O)C3)OC(=O)c2cc(O)c(O)c(O)c2-c2c1cc(O)c(O)c2O (centres undefined)
Response: Y

Request: // return assay outcome for CC(O)C1OC(n2cnc3c(=O)[nH]cnc32)C(O)C1O (centres undefined)
Response: N

Request: // return assay outcome for "O=C(c1ccccc1)c1ccc2cccc(O)c2n1"
Response: N

Request: // return assay outcome for OCC1C(CO)C2CC1C1N=NN(c3ccccc3)C21 (centres undefined)
Response: N

Request: // return assay outcome for CCOC(=O)C(NC(=O)CC)(Nc1ccc(S(=O)(=O)Nc2nc(C)cc(C)n2)cc1)C(F)(F)F (centres undefined)
Response: N

Request: // return assay outcome for "COc1ccc(C2=NOP(c3ccccc3)(c3ccccc3)(c3ccccc3)C2)cc1"
Response: N

Request: // return assay outcome for "CC1(C)SCc2nc3ncccc3n21"
Response: N

Request: // return assay outcome for CCCNC(C#N)c1ccc(C(C#N)NCCC)cc1 (centres undefined)
Response: N

Request: // return assay outcome for COc1ccc(CN2C(=S)SC(c3ccc(Cl)cc3)N2c2ccc(OC)cc2)cc1 (centres undefined)
Response: N

Request: // return assay outcome for "COc1cc(NC(=O)CC(C)=O)cc2c(C)cc(=O)n(C)c12"
Response: N

Request: // return assay outcome for O=C1CC2C(=O)C1C(C(=O)O)C2C(=O)O (centres undefined)
Response: N

Request: // return assay outcome for "CN(C)CCNC(=O)c1ccc(NC(=O)c2nc([N+](=O)[O-])cn2C)cc1"
Response: N

Request: // return assay outcome for O=C(O)/C=C/CCC1SCC2NC(=O)NC21 (centres undefined)
Response: N

Request: // return assay outcome for "N/N=C1\CCCc2c1no[n+]2[O-]"
Response: N

Request: // return assay outcome for CC(CN1CCN(CC(C)Nc2ccnc3cc(Cl)ccc23)CC1)Nc1ccnc2cc(Cl)ccc12 (centres undefined)
Response: N

Request: // return assay outcome for "Cc1c(C(=O)C(=O)c2ccccc2)c(C)c(C(=O)C(=O)c2ccccc2)c(C)c1C(=O)C(=O)c1ccccc1"
Response: N

Request: // return assay outcome for "COC(=O)c1csnn1"
Response: N
